Listing: IC50 of selected compounds
Molecular target: adenosine A2B receptor (Homo sapiens (Human))
Sequence (P29275 whole entry): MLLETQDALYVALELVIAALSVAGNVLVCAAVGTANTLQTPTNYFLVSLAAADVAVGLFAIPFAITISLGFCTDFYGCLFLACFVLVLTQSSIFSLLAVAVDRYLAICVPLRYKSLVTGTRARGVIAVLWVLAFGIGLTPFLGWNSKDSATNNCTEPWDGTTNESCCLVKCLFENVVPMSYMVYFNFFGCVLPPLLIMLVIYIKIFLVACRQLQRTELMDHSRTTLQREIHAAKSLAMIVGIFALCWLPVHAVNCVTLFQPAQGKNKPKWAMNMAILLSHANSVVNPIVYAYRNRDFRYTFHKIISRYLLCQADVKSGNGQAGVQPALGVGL
Experiment: Adenosine receptor activity assay (Table 1), A2B activity
Format: biochemical
Settings: read-out: Ave A2B cAMP IC50

Compound	Experimental Endpoint	Experimental Result
C[C@H](Nc1nc(C(=O)N2CC(O)C2)c2sc(N)cc2n1)c1ccccn1 [Example Z205]	IC50	10 to 50 nM
C[C@H](Nc1nc(C(=O)N2CC[C@H](NC(=O)OCc3ccccc3)C2)c2sccc2n1)c1cncc(F)c1 [Example Z472]	IC50	10 to 50 nM
C[C@H](Nc1nc(C(=O)N2CCN(C(=O)N(C)C)C2)c2sccc2n1)c1cncc(F)c1 [Example Z590]	IC50	10 to 50 nM
CC(C)(C)OC(=O)N1CCN(C(=O)c2nc(NCc3cncc(F)c3)nc3ccsc23)C1 [Example Z135]	IC50	100 to 500 nM

Param item = O=C(c1nc(NCc2cncc(F)c2)nc2ccsc12)N1CC(O)C1 [Example Z109] ; retrieve measured IC50.
< 10 nM

Need IC50, item C[C@H](O)CNC(=O)c1nc(N[C@@H](C)c2cncc(F)c2)nc2cc(C(F)(F)F)sc12 [Example Z392]
< 10 nM
